# test-target: His-BIR3 (241-356, XIAP) (Homo sapiens, UniProt P98170)
# Construct: additions of His-BIR3 (241-356, XIAP), fluorescein labeled SMAC peptide
# Sequence (P98170 241-356): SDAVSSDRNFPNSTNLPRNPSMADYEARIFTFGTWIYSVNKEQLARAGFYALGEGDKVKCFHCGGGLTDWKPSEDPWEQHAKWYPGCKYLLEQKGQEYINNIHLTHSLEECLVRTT
# protocol: XIAP-BIR3/SMAC Homogeneous Time Resolved Fluorescence (HTRF) Assay
# applied-conditions: fluorescein labeled SMAC peptide
measurement-type: IC50 (nM)
Just the number please, in nM, no unit attached.

Answered examples (4):
>  <compound>
CN[C@@H](C)C(=O)N[C@H](C(=O)N1C[C@@H]2C[C@H]1C(=O)NC(Cc1ccc3ccccc3c1)C(=O)N[C@H](c1nnn[nH]1)Cc1ccc(cc1)OC/C=C/C[C@H]1C[C@@H](C(=O)N[C@@H](Cc3ccc4ccccc4c3)C(=O)N[C@H](C(=O)O)Cc3ccc(cc3)OCc3cn2nn3)N(C(=O)[C@@H](NC(=O)[C@H](C)NC)C(C)(C)C)C1)C(C)(C)C (stereo partly drawn) [Example 93]

>  <IC50, nM>
0.8

$$$$
>  <compound>
CNC(C)C(=O)NC(C(=O)N1CC2CC1C(=O)NC(Cc1ccc3ccccc3c1)C(=O)NC(C(=O)O)Cc1ccc(cc1)OCC=CCOC1CC(C(=O)NC(Cc3ccc4ccccc4c3)C(=O)NC(C(=O)O)Cc3ccc(cc3)CC(=O)N2)N(C(=O)C(NC(=O)C(C)NC)C(C)(C)C)C1)C(C)(C)C (stereo not drawn) [Example 30]

>  <IC50, nM>
7.5

$$$$
>  <compound>
CN[C@@H](C)C(=O)N[C@H](C(=O)N1C[C@@H]2C[C@H]1C(=O)N[C@@H](Cc1ccc3ccccc3c1)C(=O)N[C@H](C(=O)O)Cc1ccc(cc1)OCCCC[C@H]1C[C@@H](C(=O)N[C@@H](Cc3ccc4ccccc4c3)C(=O)N[C@H](C(=O)NS(C)(=O)=O)Cc3ccc(cc3)OCc3cn2nn3)N(C(=O)[C@@H](NC(=O)[C@H](C)NC)C(C)(C)C)C1)C(C)(C)C [Example 2]

>  <IC50, nM>
2.3

$$$$
>  <compound>
CN[C@@H](C)C(=O)N[C@H](C(=O)N1C[C@H]2C/C=C/COc3ccc(cc3)C[C@@H](C(=O)O)NC(=O)[C@H](Cc3ccc4ccccc4c3)NC(=O)[C@@H]3C[C@@H](CN3C(=O)[C@@H](NC(=O)[C@H](C)NC)C(C)(C)C)NC(=O)c3ccc(cc3)C[C@@H](C(=O)O)NC(=O)C(Cc3ccc4ccccc4c3)NC(=O)[C@@H]1C2)C(C)(C)C (stereo partly drawn) [Example 28]

>  <IC50, nM>
3.5

$$$$

The compound listed as CN[C@@H](C)C(=O)N[C@H](C(=O)N1C[C@@H]2C[C@H]1C(=O)N[C@@H](Cc1ccc3ccccc3c1)C(=O)N[C@H](C(=O)O)Cc1ccc(cc1)OC/C=C/CO[C@H]1C[C@@H](C(=O)N[C@@H](Cc3c[nH]c4ccccc34)C(=O)N[C@H](C(=O)O)Cc3ccc(cc3)C(=O)N2)N(C(=O)[C@@H](NC(=O)[C@H](C)NC)C(C)(C)C)C1)C(C)(C)C [Example 46] shows IC50 equal to 24.2

Value of IC50 reported for the compound CC[C@H](NC(=O)[C@H](C)NC)C(=O)N1C[C@@H]2C[C@H]1C(=O)N1Cc3ccccc3C[C@H]1C(=O)N[C@H](C(=O)O)Cc1ccc(cc1)C(=O)N[C@H]1C[C@@H](C(=O)N[C@@H](Cc3ccc4ccccc4c3)C(=O)N[C@H](C(=O)O)Cc3ccc(cc3)OC/C=C/CO2)N(C(=O)[C@@H](NC(=O)[C@H](C)NC)C(C)(C)C)C1 [Example 50] is 80

All figures here come from patent US20140135270A1.
